target: Plasma kallikrein (Homo sapiens, UniProt P03952); assay: Inhibitory activity against Kallikrein (PK)
Sequence (P03952 20-390 limits assumed): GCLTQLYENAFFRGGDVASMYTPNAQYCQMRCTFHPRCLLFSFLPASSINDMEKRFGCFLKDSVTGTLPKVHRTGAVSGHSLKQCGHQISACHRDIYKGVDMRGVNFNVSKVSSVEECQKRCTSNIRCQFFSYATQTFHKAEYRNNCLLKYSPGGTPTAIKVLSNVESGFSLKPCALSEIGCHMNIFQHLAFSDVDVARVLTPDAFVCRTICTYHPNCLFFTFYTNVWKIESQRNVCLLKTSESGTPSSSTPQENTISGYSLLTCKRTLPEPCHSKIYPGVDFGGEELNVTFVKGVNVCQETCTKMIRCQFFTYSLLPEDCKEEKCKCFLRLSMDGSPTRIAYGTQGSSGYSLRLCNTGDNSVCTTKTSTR
Sequence (P03952 391-638 limits assumed): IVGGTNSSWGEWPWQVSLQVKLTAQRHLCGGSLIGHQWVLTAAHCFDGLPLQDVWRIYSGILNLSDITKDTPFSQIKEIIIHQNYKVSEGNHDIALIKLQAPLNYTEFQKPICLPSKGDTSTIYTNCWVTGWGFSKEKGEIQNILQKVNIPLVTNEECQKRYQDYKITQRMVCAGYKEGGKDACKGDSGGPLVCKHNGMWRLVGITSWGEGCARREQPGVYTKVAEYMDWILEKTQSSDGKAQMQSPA
Mark rule met only for Ki values smaller than 20 µM; exact matches and larger values are rule not met.

Solved cases (6 shown):
CN(C)C(=O)N1CCN(C(=O)[C@@H](Cc2cccc(C(=N)N)c2)NS(=O)(=O)c2ccc3ccccc3c2)CC1 | rule met
CC1(C)C2CCC1(CCS(=O)(=O)N[C@H](Cc1cccc(C(=N)N)c1)C(=O)N1CCN(S(C)(=O)=O)CC1)C(=O)C2 (some centres not stated) | rule not met
N=C(N)c1cccc(C[C@@H](NS(=O)(=O)c2ccc3ccccc3c2)C(=O)N2CCN(C=O)CC2)c1 | rule met
CC(=O)N1CCN(C(=O)[C@@H](Cc2cccc(C(=N)N)c2)NS(=O)(=O)c2ccc3ccccc3c2)CC1 | rule met
N=C(N)c1cccc(C[C@@H](NS(=O)(=O)c2ccc3ccccc3c2)C(=O)N2CCN(CCO)CC2)c1 | rule not met
CS(=O)(=O)N1CCN(C(=O)[C@@H](Cc2cccc(C(=N)N)c2)NS(=O)(=O)c2ccc3ccccc3c2)CC1 | rule not met

Could you now consider this next compound?
// query Answer whether the compound Cc1c(C)c(S(=O)(=O)N[C@H](Cc2cccc(C(=N)N)c2)C(=O)N2CCN(S(C)(=O)=O)CC2)c(C)c2c1OC(C)(C)CC2 has Ki strictly less than 20 µM
// result rule not met

====

Measured Ki by item
target: Plasminogen (Homo sapiens, UniProt P00747); assay: Inhibitory activity against plasmin
Sequence (P00747 97-580 limits assumed): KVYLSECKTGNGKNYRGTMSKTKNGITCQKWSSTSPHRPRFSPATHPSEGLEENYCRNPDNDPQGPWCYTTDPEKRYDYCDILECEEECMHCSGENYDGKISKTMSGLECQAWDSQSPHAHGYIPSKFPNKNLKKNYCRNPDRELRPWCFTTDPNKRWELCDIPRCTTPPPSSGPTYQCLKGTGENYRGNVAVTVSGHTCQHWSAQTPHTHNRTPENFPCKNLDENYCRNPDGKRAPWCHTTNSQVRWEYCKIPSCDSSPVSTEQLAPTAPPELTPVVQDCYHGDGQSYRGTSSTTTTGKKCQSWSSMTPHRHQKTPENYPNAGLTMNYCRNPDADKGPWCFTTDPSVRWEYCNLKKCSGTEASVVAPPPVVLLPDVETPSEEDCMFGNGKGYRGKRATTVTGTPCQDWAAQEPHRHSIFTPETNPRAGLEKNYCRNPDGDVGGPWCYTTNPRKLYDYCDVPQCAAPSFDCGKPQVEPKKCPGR
Sequence (P00747 581-810 limits assumed): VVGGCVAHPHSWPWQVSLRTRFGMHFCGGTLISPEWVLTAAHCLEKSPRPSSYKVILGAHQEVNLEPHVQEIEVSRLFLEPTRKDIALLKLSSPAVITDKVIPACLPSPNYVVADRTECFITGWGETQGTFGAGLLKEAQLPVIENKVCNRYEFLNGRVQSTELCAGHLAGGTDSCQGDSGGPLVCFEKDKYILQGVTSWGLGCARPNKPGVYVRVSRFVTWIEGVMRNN
// units = µM; emit number, no label

CC1CCN(C(=O)C(Cc2cccc(C(=N)N)c2)NS(=O)(=O)c2ccc3ccccc3c2)CC1 (centres undefined) | 5.2
CCCS(=O)(=O)N1CCN(C(=O)C(Cc2cccc(C(=N)N)c2)NS(=O)(=O)c2ccc3ccccc3c2)CC1 (centres undefined) | 7.8

Please turn your attention to the following entry.
Entry CC1(C)C2CCC1(CCS(=O)(=O)NC(Cc1cccc(C(=N)N)c1)C(=O)N1CCN(S(C)(=O)=O)CC1)C(=O)C2 (stereo in doubt; 30) , Ki reported as 29

====

biological target: Vitamin K-dependent protein C (Homo sapiens, UniProt P04070); assay: Inhibitory activity against Activated protein C
Sequence (P04070 43-197 limits assumed): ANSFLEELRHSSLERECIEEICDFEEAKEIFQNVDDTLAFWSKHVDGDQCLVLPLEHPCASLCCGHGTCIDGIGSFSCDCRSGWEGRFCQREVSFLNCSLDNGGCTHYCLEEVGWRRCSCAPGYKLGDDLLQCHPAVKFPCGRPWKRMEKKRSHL
Sequence (P04070 212-461 limits assumed): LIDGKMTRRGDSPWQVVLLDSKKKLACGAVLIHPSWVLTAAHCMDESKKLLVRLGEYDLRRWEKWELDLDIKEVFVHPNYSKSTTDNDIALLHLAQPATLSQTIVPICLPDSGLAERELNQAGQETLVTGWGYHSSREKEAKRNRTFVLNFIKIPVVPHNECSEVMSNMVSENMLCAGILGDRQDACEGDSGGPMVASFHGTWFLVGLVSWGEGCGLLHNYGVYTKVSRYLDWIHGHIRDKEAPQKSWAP
PROPERTY_MEASURED: Ki
Note: state the figure and append the unit.

Worked cases, Ki given:
CS(=O)(=O)N1CCN(C(=O)[C@@H](Cc2cccc(C(=N)N)c2)NS(=O)(=O)c2ccc3ccccc3c2)CC1 | 15.2 µM
CN1CCN(C(=O)[C@@H](Cc2cccc(C(=N)N)c2)NS(=O)(=O)c2ccc3ccccc3c2)CC1 | 94 µM

Entry Cc1c(C)c(S(=O)(=O)N[C@H](Cc2cccc(C(=N)N)c2)C(=O)N2CCN(S(C)(=O)=O)CC2)c(C)c2c1OC(C)(C)CC2 , Ki reported as 180 µM

====

target: Coagulation factor X (Bos taurus, UniProt P00743)
Sequence (P00743 41-180 limits assumed): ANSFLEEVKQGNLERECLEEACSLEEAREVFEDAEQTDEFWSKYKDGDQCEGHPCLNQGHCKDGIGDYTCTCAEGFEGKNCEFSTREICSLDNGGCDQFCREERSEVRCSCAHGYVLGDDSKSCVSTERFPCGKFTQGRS
Sequence (P00743 234-492 limits assumed): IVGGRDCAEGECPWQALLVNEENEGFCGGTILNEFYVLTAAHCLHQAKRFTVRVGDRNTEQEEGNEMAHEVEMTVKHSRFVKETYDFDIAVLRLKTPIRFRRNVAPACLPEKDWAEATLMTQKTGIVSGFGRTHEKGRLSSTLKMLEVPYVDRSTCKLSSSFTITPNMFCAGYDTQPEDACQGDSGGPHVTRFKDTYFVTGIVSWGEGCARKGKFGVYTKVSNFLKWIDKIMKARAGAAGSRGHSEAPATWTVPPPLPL
PROPERTY_MEASURED: Ki (µM)
// units = µM; emit number, no label

CN1CCN(C(=O)[C@@H](Cc2cccc(C(=N)N)c2)NS(=O)(=O)c2ccc3ccccc3c2)CC1 | 19

Entry CC(=O)N1CCN(C(=O)[C@@H](Cc2cccc(C(=N)N)c2)NS(=O)(=O)c2ccc3ccccc3c2)CC1 , Ki reported as 34

Entry CS(=O)(=O)N1CCN(C(=O)[C@@H](Cc2cccc(C(=N)N)c2)NS(=O)(=O)c2ccc3ccccc3c2)CC1 , Ki reported as 19

Entry N=C(N)c1cccc(CC(NS(=O)(=O)c2ccc3ccccc3c2)C(=O)N2CCN(C(=O)Oc3ccccc3)CC2)c1 (centres undefined) , Ki reported as 43

Entry CN(C)C(=O)N1CCN(C(=O)[C@@H](Cc2cccc(C(=N)N)c2)NS(=O)(=O)c2ccc3ccccc3c2)CC1 , Ki reported as 16

Entry CC1(C)C2CCC1(CCS(=O)(=O)N[C@H](Cc1cccc(C(=N)N)c1)C(=O)N1CCN(S(C)(=O)=O)CC1)C(=O)C2 (some centres undefined) , Ki reported as 1.1

Entry CCCS(=O)(=O)N1CCN(C(=O)C(Cc2cccc(C(=N)N)c2)NS(=O)(=O)c2ccc3ccccc3c2)CC1 (centres undefined) , Ki reported as 22

Entry CS(=O)(=O)N1CCN(C(=O)C(Cc2cccc(C(=N)N)c2)NS(=O)(=O)c2ccccc2)CC1 (centres undefined) , Ki reported as 29
